Assay Overview: Human HepG2 cell viability assay in 384 well format
Assay type: toxicity, cell-based
Parameters: dose 125 nL, time 70.5 hour; concentration not given beside the values
Particulars: HepG2 cells, read-out: Inhibition
Kindly state cytotoxicity at 70.5 h for each of the entries shown.
One number for each entry, in %.

Please review the following examples before continuing.
Cc1c(C2=NS(=O)(=O)N(C)C(C(=O)Nc3ccc(Br)cc3)=C2)cnn1C    22.2
CN(Cc1ccccc1)c1ncccc1CNC1CN2CCC1CC2 (configuration not stated)    -6.82
O=C(Nc1ccc2c(c1)OCO2)c1ccc(N2CCCC2)nn1    20.4
O=C(CCCSc1ccc(NC(=O)C2CC2)nn1)NCC1CCCO1 (configuration not stated)    -14.1
Cc1cnc(N2CCC3(CC2)CC3C(=O)NCC2CC2)nc1 (configuration not stated)    11.9
CC(c1cccc(-c2cn(Cc3ccoc3)nn2)c1)N(C)C (configuration not stated)    -2.66

Take each entry in turn and give its cytotoxicity at 70.5 h.
1. COc1cccc(S(=O)(=O)N2C[C@H](OC)[C@]3(CCCO3)C2)c1
2. COc1nc2c(cc1C(=O)NCc1noc(-c3ccco3)n1)CCC2
3. NC(=O)CS(=O)(=O)Cc1cc(Cl)c2c(c1)OCCCO2

Response:
1. -4.33
2. -7.17
3. 13.8

----------
Would you kindly list cytotoxicity at 70.5 h for each of these molecules?
Assay Overview: Human HepG2 cell viability assay in 384 well format
Assay type: toxicity, cell-based
Set-up: dose 125 nL, time 70.5 hour; concentration not given beside the values
Particulars: HepG2 cells, read-out: Inhibition
One number for each entry, in %.

Please review the following examples before continuing.
NC(=O)CN1CCCN(C(=O)Cc2cccc(C(F)(F)F)c2)CC1    4.42
Cc1nccn1CCCC(=O)N1CCN(c2cccnc2)CC1    4.06
COc1ccnc(N2CCC3(CCCN(CC4CC4)C3=O)C2)n1 (stereo unspecified)    -6.47
Cc1ccc(OCCC(=O)N(C)CCC#N)cc1C    -7.6
Cc1noc(OCc2ccc(C#N)cc2)n1    -0.0296
CN1CCC(C(=O)NCCC2CN(c3cnn(C)c(=O)c3)CCO2)CC1 (stereo unspecified)    -7.81

Provide the reported cytotoxicity at 70.5 h of each entry below, same order.
1. COCCCC1CCCCN1C(=O)c1ccc(SCCO)cc1 (stereo unspecified)
2. COc1cc(C(=O)N(C)C(C)Cc2cc(C)ccn2)ccn1 (stereo unspecified)
3. CCN1CCC2(CC1)CC(NC(=O)N(C)C)c1cc(C)ccc12 (stereo unspecified)
4. CSc1nccc(N2CCC(NCc3nc(C)cc(C)n3)CC2)n1
5. CC(=O)Nc1nc(C(=O)N2CCCC(n3nc(C)nc3C)C2)cs1 (stereo unspecified)

Response:
[6.41, 25.8, 1.47, 1.01, -10.7]

Below are 2 molecules. Give each one its cytotoxicity at 70.5 h.
1. CC(C)N1CCCC1c1nc(N(C)C)ncc1I (stereo unspecified)
2. CC(C)CN(C)c1ccc(C(=O)N2CCCC2c2cnn(C)c2)cn1 (stereo unspecified)

Response:
-4.13
21.8

Parameters: items (list). Returns: cytotoxicity at 70.5 h for each item.
1. O=C(NS(=O)(=O)c1cccc(C(F)(F)F)c1)c1cnsn1
2. O=C(NC1COC2(CCN(CC3CCC3)CC2)C1)c1ccccn1 (stereo unspecified)
3. CSCCC1CC(=O)Nc2cc(O)c(C)cc21 (stereo unspecified)

Response:
-5.69
1.22
25.3

----------
Assay Overview: Human HepG2 cell viability assay in 384 well format
Type: toxicity, cell-based
Parameters: dose 125 nL, time 70.5 hour; concentration not given beside the values
Particulars: HepG2 cells, read-out: Inhibition
Reported Property: cytotoxicity at 70.5 h (%)
Give bare numbers, in %.

A selection of reference data follows.
CNc1cncc(C2CCCN2C(=O)c2ccc3nc(C)[nH]c3c2)n1 (configuration not stated)    -3.29
CCc1ccc(S(=O)(=O)N2CCCC(c3ncc[nH]3)C2)s1 (configuration not stated)    -4.54
Cn1nc(C(=O)NC2CCCC2)cc1NC(=O)C1CC1    -8.78
CCCS(=O)(=O)CC(=O)NC(C)c1cccc(-n2cccn2)c1 (configuration not stated)    10.5
COCCCNC(=O)C(C)n1nc(-c2ccco2)cc(N)c1=O (configuration not stated)    -6.27

Hey, can you go through the list below and give me cytotoxicity at 70.5 h for every item?
1. O=C(C[S+]([O-])Cc1ccc(F)cc1Cl)NC1CCCC1 (configuration not stated)
2. COCCOc1ccc(NC(=O)C2CC(=O)N(CC3CC3)C2)cn1 (configuration not stated)
3. CCOC(=O)CNC(=O)N1CCC(OC)c2ccccc2N(C)C(=O)C1 (configuration not stated)

Response:
1: -6.82; 2: 19.3; 3: -6.05

Take each entry in turn and give its cytotoxicity at 70.5 h.
1. CC(=O)N1CCC(Cc2cnc(-c3c(C)n[nH]c3C)cn2)CC1
2. Cc1nc(C)c(CN2CCOC[C@H](Oc3ccc(S(C)(=O)=O)cc3)C2)s1

Response:
18.9
0.478

List reported cytotoxicity at 70.5 h for each of these compounds:
1. Cc1nc([C@H]2C[C@@H]3CCN(Cc4scnc4C)C[C@H]3O2)no1
2. O=C(NC1(C(=O)NC2CCCC2)CCCC1)c1ccc2[nH]ncc2c1

Response:
1: -5.9; 2: -8.68

----------
Assay Overview: Human HepG2 cell viability assay in 384 well format
Assay type: toxicity, cell-based
Set-up: dose 125 nL, time 70.5 hour; concentration not given beside the values
Particulars: HepG2 cells, read-out: Inhibition
Reported Property: cytotoxicity at 70.5 h (%)
Answers are plain numbers, in %.

COc1cccc(CN2CCCC2c2ccc[nH]2)c1 (centres undefined)    0.927
COC[C@@]12CCO[C@@H]1CCN(C(=O)CCc1ccccc1Cl)C2    -3.89
O=C(NCC1CCCCC1)N1C[C@H]2C[C@H](C(=O)N3CCOCC3)[C@@H](C1)O2    24.6
CCCOCC(=O)NS(=O)(=O)c1ccc2c(c1)OCCO2    -0.678
O=C1NCCN1C1CCCN(Cc2coc(-c3cccs3)n2)C1 (centres undefined)    -6.11

Your task in this section: give cytotoxicity at 70.5 h for each listed record.
1. Cc1ccc(CN(C(=O)NC2CCS(=O)(=O)C2)C2CC2)o1 (centres undefined)
2. O=C1CNc2ncnc(Nc3cnn(Cc4ccccc4)c3)c2N1
3. Cc1nc(CNC(=O)NCC(O)c2ccc(F)cc2F)cs1 (centres undefined)
4. CCn1cnc(NC(=O)N2CCC(c3ccc(F)cc3)C2)n1 (centres undefined)
5. CC(=O)N1[C@H](CN(C)C)C[C@@H]2CN(C(=O)c3ccsc3)CC[C@@H]21
6. Cc1noc(C)c1CN1CCCC1c1nc(-c2ccccc2)no1 (centres undefined)
7. O=C(CCN1CCCO1)NC1CCCN(CC2CCCCC2)C1 (centres undefined)
8. Cc1ncc(COc2ccc(N(C)S(C)(=O)=O)cc2)s1

Response:
-7.82
27
-12
-8.46
-12.2
-2.38
-2.41
3.82

----------
What cytotoxicity at 70.5 h was measured for each of the following?
Assay Overview: Human HepG2 cell viability assay in 384 well format
Type: toxicity, cell-based
Design: dose 125 nL, time 70.5 hour; concentration not given beside the values
Particulars: HepG2 cells, read-out: Inhibition
Answers are plain numbers, in %.

COCCCSc1ccc(NCc2ccc(C)cn2)cc1    -6.35

Field: cytotoxicity at 70.5 h. Fill in for each record below.
1. Cc1nc(CN2CCCC3(CCN(c4cccnc4)C3=O)C2)cs1 (stereo not drawn)
2. CCC1=N[C@@]2(CC[C@@H]3CN(Cc4ccc(C)cc4)C[C@@H]32)C(=O)N1C

Response:
1. 14.2
2. -2.71

I would be grateful if you could provide cytotoxicity at 70.5 h for each of the following entries.
1. COCCN(C/C=C/c1ccccc1)Cc1nccs1
2. Cc1ncc(S(C)(=O)=O)c(N2Cc3ccccc3C2)n1
3. O=C(c1ccccc1)N1CC(C(=O)N2CCOCC2)C2(CCOCC2)C1 (stereo not drawn)
4. CN(C)c1ncccc1CNc1snc(Cl)c1C#N
5. COc1ccccc1/C=C/CNCC1CCc2nncn2C1 (stereo not drawn)

Response:
1. 2.82
2. 2.76
3. 7.01
4. -77.9
5. 8.27

Record cytotoxicity at 70.5 h for all entries; do not skip any.
1. CC(C)COCC1CN(Cc2ccoc2)Cc2ncn(C)c21 (stereo not drawn)
2. COc1ccccc1OC1(C(=O)O)CCN(c2ncnc(C)c2C)CC1
3. Cc1ccccc1C(CNc1ncnc2c1CCNC2)N(C)C (stereo not drawn)

Response:
14
17.6
-7.27

Please give cytotoxicity at 70.5 h for each item listed below.
1. Cc1nonc1C1CCCN1C(=O)c1cn2ccsc2n1 (stereo not drawn)
2. CCc1nc2n(n1)CC(NCC(=O)Nc1ccc(Cl)cn1)CC2 (stereo not drawn)
3. CCN(CC)C1CCN(C(=O)NCc2nncn2CC)CC1
4. Cc1occc1C(=O)N1CCOCC2(CCN(Cc3nccs3)C2)C1 (stereo not drawn)
5. CC(C)(C)n1nnnc1CN(Cc1ccccc1)Cc1ccccc1Cl
6. Cc1cc(C(=O)N2CCc3c(CN(C)C(C)C)n[nH]c3C2)[nH]n1

Response:
1. -13.5
2. -18.9
3. -0.0969
4. -6.13
5. -5.12
6. 0.919

Request: # get_value(readout='cytotoxicity at 70.5 h', item= CC(C)=CCN1CCN(CCCc2ccccc2)[C@H]2CS(=O)(=O)C[C@H]21 )
Response: -6.15
